Some sequences, each annotated with its measured phosphorylation enrichment.
- Tested on: Fer (mouse)
- METHOD DESCRIPTION: phosphorylation enrichment, bacterial display (enrichment ratio); higher = better substrate or ligand; peptides without Tyr show the background
MEASURED QUANTITY: phosphorylation enrichment

{"SEQUENCE DATA": "ADLAKYICENR [ALB_Y287_Q292R]", "VALUE REPORTED": 0.498}
{"SEQUENCE DATA": "LLKAGYQGVLR [TTPA_Y100_H101Q]", "VALUE REPORTED": 0.425}
{"SEQUENCE DATA": "HRNGMYGLHQD [SGSH_Y89_Q85R]", "VALUE REPORTED": 0.432}
{"SEQUENCE DATA": "CTLTHYKSAVK [ASNS_Y555_R550C]", "VALUE REPORTED": 0.51}
{"SEQUENCE DATA": "SARSAYQEAID [SFN_Y151_M155I]", "VALUE REPORTED": 0.395}
{"SEQUENCE DATA": "VTRLRYPVCFG [ITK_Y336]", "VALUE REPORTED": 0.487}
{"SEQUENCE DATA": "VHSGTYQVMVR [MYBPC3_Y1043_T1046M]", "VALUE REPORTED": 0.343}
{"SEQUENCE DATA": "NDHHVYLEGTL [ALDOB_Y223]", "VALUE REPORTED": 0.46}
{"SEQUENCE DATA": "GFPVHYTDMSN [DNMT3B_Y815_V818M]", "VALUE REPORTED": 0.419}
{"SEQUENCE DATA": "LWQTIYNLEAE [TNNT2_Y251_S249T]", "VALUE REPORTED": 0.855}
{"SEQUENCE DATA": "FIAVGYVDDSQ [HLA-A_Y51_T55S]", "VALUE REPORTED": 0.444}
{"SEQUENCE DATA": "CTTIHYNFMCH [TP53_Y234_N239H_YF]", "VALUE REPORTED": 0.478}

----------
- EXPERIMENTAL SYSTEM: Fes (UniProt P07332)
- Sequence (P07332 whole entry, looked up): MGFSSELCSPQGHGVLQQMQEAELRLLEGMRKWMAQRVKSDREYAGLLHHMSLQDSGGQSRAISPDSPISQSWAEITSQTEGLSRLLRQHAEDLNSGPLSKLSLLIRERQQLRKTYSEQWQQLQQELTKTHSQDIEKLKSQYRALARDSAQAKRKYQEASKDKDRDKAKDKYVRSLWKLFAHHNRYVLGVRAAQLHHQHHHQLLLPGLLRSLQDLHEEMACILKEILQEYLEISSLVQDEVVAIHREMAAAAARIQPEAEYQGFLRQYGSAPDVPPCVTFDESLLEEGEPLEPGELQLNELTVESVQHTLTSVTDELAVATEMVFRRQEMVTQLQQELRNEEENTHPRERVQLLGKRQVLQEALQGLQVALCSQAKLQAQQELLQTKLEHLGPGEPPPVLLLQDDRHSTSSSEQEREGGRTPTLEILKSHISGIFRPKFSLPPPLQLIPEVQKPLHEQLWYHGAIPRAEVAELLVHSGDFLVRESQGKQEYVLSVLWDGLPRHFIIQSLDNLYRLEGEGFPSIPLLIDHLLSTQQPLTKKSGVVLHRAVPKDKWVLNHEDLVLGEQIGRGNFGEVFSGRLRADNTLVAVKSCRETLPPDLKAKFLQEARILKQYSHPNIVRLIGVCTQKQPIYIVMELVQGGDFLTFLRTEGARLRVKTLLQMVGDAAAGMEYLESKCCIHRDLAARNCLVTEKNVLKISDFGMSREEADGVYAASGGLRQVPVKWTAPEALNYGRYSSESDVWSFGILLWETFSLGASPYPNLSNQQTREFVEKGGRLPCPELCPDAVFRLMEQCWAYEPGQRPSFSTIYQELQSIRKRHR
- METHOD DESCRIPTION: phosphorylation enrichment, bacterial display (enrichment ratio); higher = better substrate or ligand; peptides without Tyr show the background
Please use t whenever phosphorylation enrichment is not below 0.7, and f whenever it is.

{"SEQUENCE DATA": "IKSSIYDNRNE [ARAP2_Y380_K384N]", "CLASS LABEL": "f"}
{"SEQUENCE DATA": "ARLDEYIAIAK [RCOR3_Y46_K42R]", "CLASS LABEL": "f"}
{"SEQUENCE DATA": "GFPVHYTDVSN [DNMT3B_Y815]", "CLASS LABEL": "f"}
{"SEQUENCE DATA": "ANFTEYVATRW [CDKL5_Y171_YF]", "CLASS LABEL": "t"}
{"SEQUENCE DATA": "MNKNAYHNVTT [ST3GAL6_Y306_A311T]", "CLASS LABEL": "f"}
{"SEQUENCE DATA": "QLLIKYPPEEV [ZZZ3_Y670]", "CLASS LABEL": "t"}
{"SEQUENCE DATA": "KLLLKYSFHDA [RNF213_Y4141_V4146A]", "CLASS LABEL": "t"}

----------
Some sequences, each annotated with its measured SH2 binding enrichment.
- EXPERIMENTAL SYSTEM: SHP2-C SH2;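 also: peptide library displayed on the E. coli surface as eCPX fusions, selected cells deep-sequenced, score is each peptide's frequency after selection divided by its frequency in the input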
- METHOD DESCRIPTION: SH2 binding enrichment of the phosphorylated peptide, bacterial display (enrichment ratio); higher = better substrate or ligand; peptides without Tyr show the background

{"SEQUENCE DATA": "AALSAYAAQRP [PTPRN2_Y249]", "SH2 binding enrichment": 0.662}
{"SEQUENCE DATA": "PMQMPYDSRWE [PDGFRA_Y582_L580M]", "SH2 binding enrichment": 0.721}
{"SEQUENCE DATA": "VNNLVYENING [FRS2_Y306_K303N]", "SH2 binding enrichment": 1.35}
{"SEQUENCE DATA": "WRGMPYGGRGD [TGM1_Y312_R307W]", "SH2 binding enrichment": 0.739}
{"SEQUENCE DATA": "IEPVIDVVQRR [ANOS1_Y217_Y217D]", "SH2 binding enrichment": 0.517}
{"SEQUENCE DATA": "LSTPEYGPKLK [TBC1D14_Y46_A43T]", "SH2 binding enrichment": 0.733}
{"SEQUENCE DATA": "TDISLYPSGGT [TENM4_Y399_V396I]", "SH2 binding enrichment": 0.616}
{"SEQUENCE DATA": "VFLARYGPAWR [CYP2D6_Y124]", "SH2 binding enrichment": 0.703}
{"SEQUENCE DATA": "DLQDENDFKCK [STAT1_Y170_Y170N]", "SH2 binding enrichment": 0.642}
{"SEQUENCE DATA": "GAVGNYSRGLA [MGMT_Y158_G160R]", "SH2 binding enrichment": 0.632}
{"SEQUENCE DATA": "VAVVDYVEPSP [TXNRD2_Y70]", "SH2 binding enrichment": 0.696}
{"SEQUENCE DATA": "VITDYYVDMKF [MPP4_Y567]", "SH2 binding enrichment": 0.6}
{"SEQUENCE DATA": "EYRFIYMAVQH [PTPN11_Y515_Q510E]", "SH2 binding enrichment": 0.765}
{"SEQUENCE DATA": "VLAHKYHGGGG [HBB_Y146_A141V]", "SH2 binding enrichment": 0.852}
{"SEQUENCE DATA": "DVCKNYAEAKD [ALB_Y343]", "SH2 binding enrichment": 0.618}
{"SEQUENCE DATA": "GCKNRYDEDKP [THAP1_Y14_K16E]", "SH2 binding enrichment": 0.722}
{"SEQUENCE DATA": "LRVKMYNFLRS [ADGRG7_Y760]", "SH2 binding enrichment": 0.623}
{"SEQUENCE DATA": "VIECSYTSADG [DHCR7_Y382]", "SH2 binding enrichment": 0.601}
{"SEQUENCE DATA": "SFGMVYEGNAR [INSR_Y1038]", "SH2 binding enrichment": 0.798}
{"SEQUENCE DATA": "VRLTEYPCAGL", "SH2 binding enrichment": 0.76}
{"SEQUENCE DATA": "AQVDTYCRHNF [HLA-DRB1_Y107_A103Q_YF]", "SH2 binding enrichment": 0.834}
{"SEQUENCE DATA": "GYQPEYGQPAG [SYP_Y278_D277E]", "SH2 binding enrichment": 0.553}
{"SEQUENCE DATA": "DSASAYADEVK [ETNPPL_Y189]", "SH2 binding enrichment": 0.661}

----------
- System: c-Src
- METHOD DESCRIPTION: phosphorylation enrichment, bacterial display (enrichment ratio); higher = better substrate or ligand; peptides without Tyr show the background

{"SEQUENCE DATA": "GPKSTYISSAA [GOLGA5_Y62]", "phosphorylation enrichment": 0.508}
{"SEQUENCE DATA": "SSQTIYQRVEG [TFR2_Y23_V22I]", "phosphorylation enrichment": 1.6}
{"SEQUENCE DATA": "CYVYYYSYLLK [PTEN_Y178_R173C]", "phosphorylation enrichment": 1.47}
{"SEQUENCE DATA": "SVVVRYEPPEV [TP53_Y220_P219R]", "phosphorylation enrichment": 0.386}
{"SEQUENCE DATA": "TEIGQYGNGLK [MORC2_Y100_Q96E]", "phosphorylation enrichment": 0.331}
{"SEQUENCE DATA": "AFGEVYEGQVS [ALK_Y1131]", "phosphorylation enrichment": 1.54}
{"SEQUENCE DATA": "SEPSGYQDNIA [DES_Y363_A360P]", "phosphorylation enrichment": 0.47}
{"SEQUENCE DATA": "QEMMEYRRQIQ [DES_Y324_H326R]", "phosphorylation enrichment": 0.563}
{"SEQUENCE DATA": "DLRTGYSVPFG [TGM1_Y370_Y365D_YF]", "phosphorylation enrichment": 0.341}
{"SEQUENCE DATA": "VRSTEYPCAGL", "phosphorylation enrichment": 0.471}
{"SEQUENCE DATA": "TAGFSYEKWEI [TEC_Y360]", "phosphorylation enrichment": 0.463}
{"SEQUENCE DATA": "DPYHVYIKNRV [KCNE3_Y95]", "phosphorylation enrichment": 2.15}
{"SEQUENCE DATA": "VLTSTYRGGGG [HBA1_Y141_K140T]", "phosphorylation enrichment": 0.394}
{"SEQUENCE DATA": "NELTFYCCKKD [CD59_Y87_YF]", "phosphorylation enrichment": 0.436}
{"SEQUENCE DATA": "FEDTLYTVLHR [UNC13D_Y61_A59T_YF]", "phosphorylation enrichment": 6.22}
{"SEQUENCE DATA": "AHLLQYNHQVK [LGALS3_Y221_R224Q]", "phosphorylation enrichment": 0.459}
{"SEQUENCE DATA": "TVDASYCGGRG [ANTXR2_Y380_Y381C]", "phosphorylation enrichment": 0.351}
{"SEQUENCE DATA": "RLSVDYGKKSK [TUBA3E_Y161_S162G]", "phosphorylation enrichment": 0.396}
{"SEQUENCE DATA": "VRFMADTDETF [F8_Y450_Y450D]", "phosphorylation enrichment": 0.471}
{"SEQUENCE DATA": "AGTILYHAHLG [ASS1_Y291_D296G]", "phosphorylation enrichment": 0.549}
{"SEQUENCE DATA": "GKVFIYHGSSL [ITGA7_Y458]", "phosphorylation enrichment": 0.369}
{"SEQUENCE DATA": "EQAERYDDMAA [YWHAG_Y20]", "phosphorylation enrichment": 0.426}
{"SEQUENCE DATA": "YDAHNYHPLPV [OAT_Y55_G51D]", "phosphorylation enrichment": 0.622}
{"SEQUENCE DATA": "GRLFAYPDTHR [CAT_Y358]", "phosphorylation enrichment": 0.356}
{"SEQUENCE DATA": "ALEKTYNTYRS [B4GALNT2_Y538]", "phosphorylation enrichment": 0.925}
{"SEQUENCE DATA": "TVSSDYLHPQY [CCPG1_Y569_F566S]", "phosphorylation enrichment": 0.355}
{"SEQUENCE DATA": "NELTFYCFKKD [CD59_Y87_C89Y_YF]", "phosphorylation enrichment": 0.35}
